test system: primary human hepatic stellate cells (donor 1); assay: COL1A1 mRNA fold change vs DMSO (normalised to PSMB2); higher = more COL1A1 expression, active = hit call of the paper; conditions: 48 h
Structures can show the parent of a compound that is named as a salt.
Listed compounds paired with reported COL1A1 mRNA fold change
// return a plain number; no unit text

// below: answered compounds
COMPOUND | OBS_VALUE
CC(C)NCCCn1c(Sc2cc3c(cc2I)OCO3)nc2c(N)ncnc21 (33.3333 µM) | 0.844
Clc1ccc(C2(c3ccc(-c4cn[nH]c4)cc3)CCNCC2)cc1 (33.3333 µM) | 0.285
CN1CCN(Cc2ccc(-c3cnc4[nH]cc(-c5ccc6[nH]ccc6c5)c4c3)cc2)CC1 (6.66667 µM) | 0.0518
c1cc(OCCN2CCCCC2)cc(-c2n[nH]c3ccc(-c4nnc[nH]4)cc23)c1 (33.3333 µM) | 0.105
[O-][S+](c1ccccc1)c1ccc2nnnn2n1 (stereo not drawn) (33.3333 µM) | 0.0868
CNCCC(Oc1ccc(C(F)(F)F)cc1)c1ccccc1 (stereo not drawn) [Fluoxetine hydrochloride] (33.3333 µM) | 0.114
C#CC1(O)CC[C@H]2[C@@H]3CCC4=CC(=O)CC[C@@H]4[C@H]3CC[C@@]21CC (stereo partly drawn) [Norgestrel] (21.3333 µM) | 1.14
O=S(=O)(NCCNC/C=C/c1ccc(Br)cc1)c1cccc2cnccc12 [H-89, Dihydrochloride] (11.1 µM) | 0.594

Recorded COL1A1 mRNA fold change (compound CC[C@@H]1C(=O)N(C)c2cnc(Nc3ccc(C(=O)NC4CCN(C)CC4)cc3OC)nc2N1C1CCCC1 (33.3333 µM) ): 0.0466

compound CNCCCC12CCC(c3ccccc31)c1ccccc12 [Maprotiline hydrochloride] (33.3333 µM) , COL1A1 mRNA fold change observed: 0.0732

COL1A1 mRNA fold change in this record for CNCc1ccc(-c2[nH]c3cc(F)cc4c3c2CCNC4=O)cc1 (33.3333 µM) : 0.83

The recorded COL1A1 mRNA fold change for entry NS(=O)(=O)C#Cc1ccccc1 [Pifithrin->m] (33.3333 µM) equals 0.18

Lookup result for C#C[C@]1(O)CC[C@H]2[C@@H]3CCC4=Cc5oncc5C[C@]4(C)[C@H]3CC[C@@]21C [Danazol] (33.3333 µM) ; measured COL1A1 mRNA fold change: 0.0336

According to the records, this compound CC1(C)CC(=O)c2c(C(F)(F)F)nn(-c3ccc(C(N)=O)c(N[C@H]4CC[C@H](OC(=O)CN)CC4)c3)c2C1 (33.3333 µM) displays COL1A1 mRNA fold change of 0.807

// Cn1cc(C2=C(c3ccc(Cl)cc3Cl)C(=O)NC2=O)c2ccccc21 (33.3333 µM) : COL1A1 mRNA fold change value = 2.59

Record summary for CNCCCC1c2ccccc2C=Cc2ccccc21 [Protryptyline hydrochloride] (22.2333 µM) : reported COL1A1 mRNA fold change = 0.548

What the record says about Cc1[nH]c(/C=C2\C(=O)Nc3ccc(S(=O)(=O)N(C)c4cccc(Cl)c4)cc32)c(C)c1C(=O)N1CCN(C)CC1 (33.3333 µM) : COL1A1 mRNA fold change is 0.254

Lab note: CS(=O)(=O)CCNCc1ccc(-c2ccc3ncnc(Nc4ccc(OCc5cccc(F)c5)c(Cl)c4)c3c2)o1 (6.66667 µM) gave COL1A1 mRNA fold change of 1.41
